Molecular target: L-type voltage-gated calcium channel (dihydropyridine site), Cav1.2 alpha-1C (Rattus norvegicus)
Sequence (P22002 whole entry): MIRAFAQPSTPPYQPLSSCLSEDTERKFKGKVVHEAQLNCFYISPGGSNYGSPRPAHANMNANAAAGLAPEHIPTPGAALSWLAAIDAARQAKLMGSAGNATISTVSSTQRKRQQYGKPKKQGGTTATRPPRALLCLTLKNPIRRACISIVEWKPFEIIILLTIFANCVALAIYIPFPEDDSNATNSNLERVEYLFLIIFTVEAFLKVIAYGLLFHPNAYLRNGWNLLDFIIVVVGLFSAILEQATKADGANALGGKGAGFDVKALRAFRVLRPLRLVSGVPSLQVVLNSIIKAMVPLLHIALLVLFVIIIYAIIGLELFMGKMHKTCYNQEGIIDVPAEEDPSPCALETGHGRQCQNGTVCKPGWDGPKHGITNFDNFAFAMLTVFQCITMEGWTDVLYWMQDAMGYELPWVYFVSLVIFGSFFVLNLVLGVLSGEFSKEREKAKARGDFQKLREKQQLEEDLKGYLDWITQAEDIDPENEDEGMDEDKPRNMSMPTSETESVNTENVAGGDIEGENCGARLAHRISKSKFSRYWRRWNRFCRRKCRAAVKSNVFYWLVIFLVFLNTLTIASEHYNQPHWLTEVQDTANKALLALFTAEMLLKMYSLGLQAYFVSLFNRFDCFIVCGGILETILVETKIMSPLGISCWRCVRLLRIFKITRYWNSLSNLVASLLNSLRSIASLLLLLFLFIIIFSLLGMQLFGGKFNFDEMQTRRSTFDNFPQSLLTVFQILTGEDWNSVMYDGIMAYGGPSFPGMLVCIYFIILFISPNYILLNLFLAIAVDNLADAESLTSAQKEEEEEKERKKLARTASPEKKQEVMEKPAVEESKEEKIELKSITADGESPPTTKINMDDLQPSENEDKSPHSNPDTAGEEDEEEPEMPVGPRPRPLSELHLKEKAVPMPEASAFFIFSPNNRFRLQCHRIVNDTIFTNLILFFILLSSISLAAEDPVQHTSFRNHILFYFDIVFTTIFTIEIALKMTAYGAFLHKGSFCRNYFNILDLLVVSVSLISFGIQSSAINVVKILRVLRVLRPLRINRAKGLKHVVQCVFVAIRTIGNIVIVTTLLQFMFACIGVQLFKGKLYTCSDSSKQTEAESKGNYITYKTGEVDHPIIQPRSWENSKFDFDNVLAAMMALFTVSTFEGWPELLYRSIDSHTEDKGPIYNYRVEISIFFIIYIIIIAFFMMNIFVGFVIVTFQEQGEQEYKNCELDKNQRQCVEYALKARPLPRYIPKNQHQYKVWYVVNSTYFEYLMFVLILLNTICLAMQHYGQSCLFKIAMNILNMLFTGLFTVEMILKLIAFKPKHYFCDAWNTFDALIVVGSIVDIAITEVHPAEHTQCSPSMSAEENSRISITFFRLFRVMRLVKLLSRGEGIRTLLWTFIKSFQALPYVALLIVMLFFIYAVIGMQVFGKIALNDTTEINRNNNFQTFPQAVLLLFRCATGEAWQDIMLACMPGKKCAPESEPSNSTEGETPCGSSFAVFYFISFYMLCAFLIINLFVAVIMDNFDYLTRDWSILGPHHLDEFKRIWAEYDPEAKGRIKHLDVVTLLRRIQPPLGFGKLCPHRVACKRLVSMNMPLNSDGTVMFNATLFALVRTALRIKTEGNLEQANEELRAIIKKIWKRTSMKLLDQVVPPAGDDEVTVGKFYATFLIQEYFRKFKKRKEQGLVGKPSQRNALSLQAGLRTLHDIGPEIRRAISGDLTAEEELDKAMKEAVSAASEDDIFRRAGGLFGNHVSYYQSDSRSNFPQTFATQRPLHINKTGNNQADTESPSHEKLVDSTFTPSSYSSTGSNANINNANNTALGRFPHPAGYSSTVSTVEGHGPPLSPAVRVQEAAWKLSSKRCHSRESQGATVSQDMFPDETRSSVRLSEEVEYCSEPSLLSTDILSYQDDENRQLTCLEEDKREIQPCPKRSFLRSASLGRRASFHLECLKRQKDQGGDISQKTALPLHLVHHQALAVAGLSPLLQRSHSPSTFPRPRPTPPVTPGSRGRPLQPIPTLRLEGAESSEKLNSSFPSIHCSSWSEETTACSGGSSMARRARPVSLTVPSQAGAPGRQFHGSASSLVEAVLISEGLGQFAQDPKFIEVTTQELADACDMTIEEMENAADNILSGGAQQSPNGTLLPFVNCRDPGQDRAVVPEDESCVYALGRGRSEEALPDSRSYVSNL
Experiment: CA+/DHPSI/R Cerep selectivity data (BI)
Parameters: mode of action inhibitor
Details: rat brain, probe [3H](+)PN200-110, compound concentration 10 uM, read-out: % Ctrl
measuredParameter: activity at 10 µM (%)

INSERT INTO results (compoundstructurestring, measuredparameter, reportedvalue) VALUES
  ('O=C(NC[C@@H]1[C@H]2CN(C(=O)OCc3cc(C(F)(F)F)cc(C(F)(F)F)c3)C[C@@H]12)c1ccc2[nH]nnc2c1', 'activity at 10 µM', 20);

----------
Target: 5-hydroxytryptamine receptor 2A (Homo sapiens)
Sequence (P28223 whole entry): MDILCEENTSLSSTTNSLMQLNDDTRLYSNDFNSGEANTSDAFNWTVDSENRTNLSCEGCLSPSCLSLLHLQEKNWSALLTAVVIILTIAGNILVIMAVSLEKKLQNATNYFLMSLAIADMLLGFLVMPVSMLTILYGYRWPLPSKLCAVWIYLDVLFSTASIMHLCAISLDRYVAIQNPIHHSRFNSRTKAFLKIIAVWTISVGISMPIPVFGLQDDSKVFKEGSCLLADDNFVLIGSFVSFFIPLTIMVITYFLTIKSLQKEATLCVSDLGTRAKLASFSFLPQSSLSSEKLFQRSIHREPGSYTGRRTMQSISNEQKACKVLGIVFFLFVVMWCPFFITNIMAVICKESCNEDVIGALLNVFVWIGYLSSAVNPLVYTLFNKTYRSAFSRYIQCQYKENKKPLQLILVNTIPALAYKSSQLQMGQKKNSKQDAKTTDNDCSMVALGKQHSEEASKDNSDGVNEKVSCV
measuredParameter: Ki (µM)

INSERT INTO measurements (compoundstructurestring, unitslabel, reportedvalue) VALUES
  ('O=C(NC[C@@H]1[C@H]2CN(C(=O)OCc3cc(C(F)(F)F)cc(C(F)(F)F)c3)C[C@@H]12)c1ccc2[nH]nnc2c1', 'µM', 8.68);

----------
Molecular target: Sigma non-opioid intracellular receptor 1 (Homo sapiens, UniProt Q99720)
Sequence (Q99720 whole entry): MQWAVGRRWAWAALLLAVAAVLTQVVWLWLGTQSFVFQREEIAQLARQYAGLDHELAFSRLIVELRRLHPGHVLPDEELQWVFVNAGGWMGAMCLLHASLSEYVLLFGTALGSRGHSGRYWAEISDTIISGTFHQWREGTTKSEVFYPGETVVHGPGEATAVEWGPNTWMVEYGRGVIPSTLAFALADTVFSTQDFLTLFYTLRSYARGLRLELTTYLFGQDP
Test: GPCRScan assay: inhibition of Sigma 1
measuredParameter: Ki (µM)

INSERT INTO results (compound, unitslabel, reportedvalue) VALUES
  ('O=C(NC[C@@H]1[C@H]2CN(C(=O)OCc3cc(C(F)(F)F)cc(C(F)(F)F)c3)C[C@@H]12)c1ccc2[nH]nnc2c1 [BI 2545]', 'µM', 3.55);
